Numbers sourced from PubChem BioAssay (EPA / NIEHS).

read-out: Interleukin-1 alpha (IL1a), IL1A (gene 3552); experiment: BSK_BE3C_IL1a: BioMAP Diversity Plus: BE3C Assay for Interleukin-1 alpha (IL1a) Biomarker Activity (AID 2283016); conditions: primary human bronchial epithelial cells; actives raise or lower the signal
Calls of active or inactive are those of the source. The calls were made as follows: active = hit-call score of the fitted dose curve at least 0.9, where 1 is the maximum; inactive = score below 0.9.
Outcomes: true for active, false for inactive

sample.smiles: CC1=NN(c2ccccc2)C(=O)C1
answer.label: false
--
sample.smiles: OCC(F)(F)C(F)(F)C(F)(F)C(F)(F)C(F)(F)C(F)(F)C(F)(F)C(F)(F)C(F)(F)C(F)(F)C(F)(F)F
answer.label: false
--
sample.smiles: O=C(NCc1ncc(C(F)(F)F)cc1Cl)c1c(Cl)cccc1Cl
answer.label: false
--
sample.smiles: CCCCC=O
answer.label: false
--
sample.smiles: O=C1c2ccc(O)c(O)c2C(=O)c2c(O)ccc(O)c21
answer.label: false
--
sample.smiles: OCC(CO)(CBr)CBr
answer.label: false
--
sample.smiles: NC(=NCCCCCCN=C(N)/N=C(\N)Nc1ccc(Cl)cc1)/N=C(\N)Nc1ccc(Cl)cc1
answer.label: true
--
sample.smiles: Oc1ccc(Cc2ccccc2O)cc1
answer.label: false
--
sample.smiles: Cc1ccc(N=Nc2c(O)ccc3ccccc23)c(C)c1
answer.label: false
--
sample.smiles: CS(=O)(=O)c1ccc([C@@H](CC2CCCC2)C(=O)Nc2cnccn2)cc1Cl
answer.label: false
--
sample.smiles: Cc1ccc(C(=O)c2ccccc2)cc1
answer.label: false
--
sample.smiles: CN(C)c1ccc(C(=C2C=CC(=[N+](C)C)C=C2)c2ccccc2)cc1
answer.label: true
